Numbers sourced from PubChem BioAssay AID1259417.

Test: M. tuberculosis growth inhibition, HTS (AID 1259417);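 note: bacteria grown with compound for 5 days at 37 °C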
Conditions: M. tuberculosis DsRed fluorescence growth inhibition; concentration not given here
Among all 1,100 compounds or so, about 760 (69%) were called active. The rule behind the calls is not given here. So high a share suggests a set chosen from earlier hits. Some of the results follow.
Just give me one of these, please: Y = active, N = inactive

Cc1ccc(-c2nc(NC(=O)CO)cs2)cc1 = Y
CCOc1cc(C(=O)ON=C(N)Cc2ccc(Cl)cc2Cl)cc(OCC)c1OCC = N
COC(C)(C)C#CC(=O)c1cccc2ccccc12 = Y

// query Dear colleague, could you share the recorded outcome for "Cc1ccc(-c2csc(-c3ccc(O)cc3)n2)cc1" when you have a moment?
// result N

// query Proceed to "CCOc1cc(CNCc2ccccc2OCc2ccccc2)cc(Cl)c1OCC"
// result N

// query Proceed to CCOC(=O)C(C)Sc1nnc(NC(=O)c2ccc(C)c([N+](=O)[O-])c2)s1 (configuration not stated)
// result N

// query Proceed to "CC(C)c1ccc(Nc2nnc(SCC(=O)Nc3ncc(S(=O)(=O)c4ccc([N+](=O)[O-])cc4)s3)s2)cc1"
// result N

// query Proceed to "COC(=O)CSc1nnc(NC(=O)c2ccc(C(C)(C)C)cc2)s1"
// result Y

// query Proceed to "CCOc1cc(CNCCO)cc(Br)c1OCc1ccc(Cl)cc1Cl"
// result Y

---

Experiment: M. tuberculosis growth inhibition, HTS (AID 1259417);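 note: bacteria grown with compound for 5 days at 37 °C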
Conditions: M. tuberculosis DsRed fluorescence growth inhibition; concentration not given here
In all, about 1,100 compounds went through this assay and about 760 (69%) were called active. The rule behind the calls is not given here. So high a share suggests a set chosen from earlier hits. The list shows a part of the results.
Just give me one of these, please: Y = active, N = inactive

COc1cc2cc(-c3nc4ccccc4[nH]3)c(N)nc2cc1OC = Y
COc1cccc(OCC(=O)c2ccc(Br)cc2)c1 = N
CCCOc1ccccc1-c1nc(SCC(=O)OCC)n[nH]1 = Y
CCOC(=O)CSc1n[nH]c(-c2ccc(Cl)cc2)n1 = Y
N#Cc1ccc(-c2ccc(OCC(N)=O)cc2)cc1 = Y

// query Dear colleague, could you share the recorded outcome for "NC(=O)C1CCN(C2=NC(=O)C(=Cc3ccc(Cl)cc3Cl)S2)CC1" when you have a moment?
// result Y

// query Proceed to COC(=O)CN1C(c2ccc(OC)cc2)=Nc2ccc(Cl)cc2C1c1ccccc1 (centres undefined)
// result Y

// query Proceed to "O=C(CSc1n[nH]c(-c2ccc(Cl)cc2)n1)Nc1ccc(F)c(Cl)c1"
// result N

// query Proceed to "O=C(OCn1nnc2ccccc2c1=O)c1ccco1"
// result Y

// query Proceed to "NC(=O)c1c(NC(=O)c2ccc([N+](=O)[O-])s2)sc2c1CCN(Cc1ccccc1)C2"
// result N

// query Proceed to "O=C(NCCc1ccc(Cl)cc1)c1ccc(CNc2c(N3CCOCC3)c(=O)c2=O)cc1"
// result Y

// query Proceed to CCOc1cccc(N2C(=O)CC(SC(N)=NN=C(C)c3ccc(Cl)s3)C2=O)c1 (centres undefined)
// result N

// query Proceed to "CCOC(=O)c1c(NC(=O)c2cccc([N+](=O)[O-])c2)sc(CC)c1-c1ccccc1"
// result N

// query Proceed to "CCOC(=O)CSc1ncc(-c2cccc(Cl)c2)cn1"
// result Y

// query Proceed to "CCN(CC)c1cccc(Oc2nc([N+](=O)[O-])nn2C)c1"
// result Y

// query Proceed to "COc1cccc(OCCNC(=O)c2cc([N+](=O)[O-])cc([N+](=O)[O-])c2)c1"
// result Y

// query Proceed to CC1CCc2nc3sc4c(c3c(N)c2C1)CCCC4 (centres undefined)
// result Y

// query Proceed to "Cc1ccccc1C(=O)Nc1sc(Cc2ccccc2)c(C)c1C(N)=O"
// result N

// query Proceed to COc1ccc(C2CC(c3c(-c4ccccc4)c4cc(Br)ccc4[nH]c3=O)=NN2C(=O)c2ccccc2)cc1 (centres undefined)
// result N
